Field: IC50. Provide a value for each of the compounds that follow.
# target.of.assay: Beclin 1/Bcl-2 interaction (Homo sapiens (Human), UniProt P10415)
# Sequence (P10415 1-218): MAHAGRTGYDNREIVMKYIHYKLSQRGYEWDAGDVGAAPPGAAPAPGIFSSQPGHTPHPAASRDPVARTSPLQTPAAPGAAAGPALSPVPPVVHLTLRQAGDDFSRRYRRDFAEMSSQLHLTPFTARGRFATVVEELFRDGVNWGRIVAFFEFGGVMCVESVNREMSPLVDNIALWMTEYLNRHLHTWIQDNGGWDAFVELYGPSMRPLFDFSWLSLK
# measurement.description: Beclin 1/Bcl-2 AlphaLISA assay (dose-response)

get_value(item= O=C(c1ccc(Br)cc1)N1N=C(c2ccc[nH]2)CC1c1ccccc1 (stereo not drawn) , readout=IC50) returns > 10 µM

get_value(item= O=C=Nc1ccc(C2=NN(C(=O)c3ccc(Br)cc3)C(c3ccccc3)C2)cc1 (stereo not drawn) , readout=IC50) returns > 10 µM

get_value(item= CC1=NN(C(=O)c2ccc(Br)cc2)C(c2ccccc2)C1 (stereo not drawn) , readout=IC50) returns > 10 µM

From: patent US11591319B2
